Some variants, each annotated with its measured folding stability dG.
B1: HHH_rd1_0493 (parent)
chain: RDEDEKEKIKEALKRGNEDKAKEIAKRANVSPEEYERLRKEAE

variants of: B1; assay: folding stability dG (cDNA display proteolysis); higher = more stable; settings: PBS, room temperature
The reply should contain only the number, in kcal/mol.

Worked cases, folding stability dG given:
{"columns": ["changes", "folding stability dG, kcal/mol"],
 "data": [
  ["R15W", 2.81],
  ["E18L", 2.86],
  ["K14T", 2.07],
  ["K14I", 2.67],
  ["E23W", 1.79]
]}

Consider the variant shown here: R27P What is its recorded folding stability dG?
0.689

Consider the variant shown here: V30D What is its recorded folding stability dG?
0.32

Consider the variant shown here: I24G What is its recorded folding stability dG?
0.729

Consider the variant shown here: E7K What is its recorded folding stability dG?
3.1

Consider the variant shown here: K6Y What is its recorded folding stability dG?
3.4

Consider the variant shown here: D19F What is its recorded folding stability dG?
2.6

Consider the variant shown here: L38A What is its recorded folding stability dG?
0.829
